- system under test: Tyrosine-protein phosphatase non-receptor type 1 (Homo sapiens) (UniProt P18031)
- Sequence (whole entry): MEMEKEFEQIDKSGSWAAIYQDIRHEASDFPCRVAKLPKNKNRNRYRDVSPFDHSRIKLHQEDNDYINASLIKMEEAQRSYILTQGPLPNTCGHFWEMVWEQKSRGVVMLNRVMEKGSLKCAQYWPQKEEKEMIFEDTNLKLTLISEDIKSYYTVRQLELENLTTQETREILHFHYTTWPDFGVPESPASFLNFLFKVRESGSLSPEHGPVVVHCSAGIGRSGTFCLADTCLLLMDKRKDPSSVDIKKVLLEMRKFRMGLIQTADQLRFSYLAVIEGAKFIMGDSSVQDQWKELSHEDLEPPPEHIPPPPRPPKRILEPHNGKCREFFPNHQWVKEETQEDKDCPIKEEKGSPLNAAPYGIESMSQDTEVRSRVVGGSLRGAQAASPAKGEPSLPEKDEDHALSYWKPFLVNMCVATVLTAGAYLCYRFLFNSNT
- measurement description: Inhibition of recombinant human PTP1B expressed in Escherichia coli expression system using pNPP as substrate at 10 uM preincubated for 30 mins followed by substrate addition by […]
endpoint: inhibition (%)

compound: COc1ccc(CN(Cc2ccc(OC)cc2)Cc2ccc(-n3ncc(C(=O)O)c3N)cc2)cc1
units symbol: %
measured: 9.9
//
compound: Nc1c(C(=O)O)cnn1-c1ccc(CC(C(=O)c2ccccc2)c2ccc(F)c(F)c2)cc1 (stereo not given)
units symbol: %
measured: 10.5
//
compound: Nc1c(C(=O)O)cnn1-c1ccc(CC(C(=O)c2ccc(F)cc2)c2ccc(F)c(F)c2)cc1 (stereo not given)
units symbol: %
measured: 21.6

a. Nc1c(C(=O)O)cnn1-c1ccc(CN(Cc2ccc(F)cc2)Cc2ccc(F)c(F)c2)cc1
b. COc1ccc(C(=O)C(Cc2ccc(-n3ncc(C(=O)O)c3N)cc2)c2ccc(F)cc2)cc1 (stereo not given)
# return whichever of a and b has the smaller inhibition Label of pick, please.
b

====

- system under test: Tyrosine-protein phosphatase non-receptor type 1 (Homo sapiens)
- Sequence (whole entry): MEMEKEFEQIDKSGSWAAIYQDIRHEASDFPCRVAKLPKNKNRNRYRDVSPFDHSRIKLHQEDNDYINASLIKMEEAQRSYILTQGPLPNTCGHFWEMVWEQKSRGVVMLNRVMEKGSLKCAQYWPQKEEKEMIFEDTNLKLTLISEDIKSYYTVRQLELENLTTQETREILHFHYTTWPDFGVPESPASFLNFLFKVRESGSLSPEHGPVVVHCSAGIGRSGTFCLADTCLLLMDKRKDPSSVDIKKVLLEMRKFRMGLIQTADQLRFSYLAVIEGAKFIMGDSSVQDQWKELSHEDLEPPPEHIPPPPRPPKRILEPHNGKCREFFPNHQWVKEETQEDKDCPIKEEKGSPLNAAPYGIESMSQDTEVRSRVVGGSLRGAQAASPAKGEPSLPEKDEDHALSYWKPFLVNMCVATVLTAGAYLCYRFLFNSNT
- measurement description: Inhibition of recombinant human PTP1B expressed in Escherichia coli expression system using pNPP as substrate at 100 uM preincubated for 30 mins followed by substrate addition by […]
endpoint: inhibition (%)

Please review the following examples before continuing.
compound: COc1ccc(C(Cc2ccc(-n3ncc(C(=O)O)c3N)cc2)c2nc(-c3ccc(Cl)cc3)no2)cc1 (configuration not stated)
system under test: Tyrosine-protein phosphatase non-receptor type 1 (Homo sapiens)
units symbol: %
measured: 98.3
--
compound: Nc1c(C(=O)O)cnn1-c1ccc(CN(Cc2ccccc2)Cc2ccccc2)cc1
system under test: Tyrosine-protein phosphatase non-receptor type 1 (Homo sapiens)
units symbol: %
measured: 64

A. Nc1c(C(=O)O)cnn1-c1ccc(CN(Cc2ccc(F)cc2)Cc2ccc(Cl)cc2)cc1
B. COc1ccc(C(=O)C(Cc2ccc(-n3ncc(C(=O)O)c3N)cc2)c2ccc(OC)cc2)cc1 (configuration not stated)
C. Nc1c(C(=O)O)cnn1-c1ccc(CC(c2ccccc2)c2nc(-c3ccccc3)no2)cc1 (configuration not stated)
# ascending order, key=inhibition The response must list the labels following the requested ordering.
B, C, A
